Provenance of the data: PubChem BioAssay AID330

Test system: P388 leukemia ip, CD2F1 mice, survival T/C
Assay: NCI In Vivo Anticancer Drug Screen. Data for tumor model P388 Leukemia (intraperitoneal) in CD2F1 (CDF1) mice
Conditions: endpoint: median survival time; dose: 200.0 mg/kg/injection; schedule: Q01DX001 (ip); vehicle: saline with Tween-80; higher = longer survival
Toxic doses and inconclusive results are not listed.
Kindly supply the reported T/C values for the records listed here.

// T/C (P388 leukemia ip, CD2F1 mice, survival T/C) for `c1ccc(-c2ncc[nH]2)cc1` = 97 % of control

// T/C (P388 leukemia ip, CD2F1 mice, survival T/C) for `O=C(COc1cccc(Cl)c1)NCc1ccc([N+](=O)[O-])cc1` = 90 % of control

// T/C (P388 leukemia ip, CD2F1 mice, survival T/C) for COC(=O)C(Cc1ccccc1)NC(=O)C(C)NC(=O)c1ccc(OC)cc1 (configuration not stated) = 100 % of control

// T/C (P388 leukemia ip, CD2F1 mice, survival T/C) for `Cn1c2c([N+](=O)[O-])cccc2c(=O)c2c(O)cc3c(c21)C=CC(C)(C)O3` = 110 % of control

// T/C (P388 leukemia ip, CD2F1 mice, survival T/C) for CC(C(=O)NN)C(C)(C)C (configuration not stated) = 99 % of control

// T/C (P388 leukemia ip, CD2F1 mice, survival T/C) for `COc1ccc(-c2c(C#N)c(N)nc(C)c2-c2ccccc2)cc1` = 96 % of control

// T/C (P388 leukemia ip, CD2F1 mice, survival T/C) for `Cn1cnc([N+](=O)[O-])c1N1CCN(c2ccccc2)CC1` = 93 % of control

// T/C (P388 leukemia ip, CD2F1 mice, survival T/C) for `CCOP(=O)(OCC)/C(C#N)=C\c1ccc(N(C)C)cc1` = 104 % of control

// T/C (P388 leukemia ip, CD2F1 mice, survival T/C) for C=CCCCCCCCCCC(CCCCCC)C(=O)O (configuration not stated) = 95 % of control

// T/C (P388 leukemia ip, CD2F1 mice, survival T/C) for `Nc1ncc(CCCOc2ccccc2)c(=O)[nH]1` = 90 % of control

// T/C (P388 leukemia ip, CD2F1 mice, survival T/C) for `O=C(N/N=C/c1cc(Cl)cc(Cl)c1O)c1ccccc1` = 98 % of control

// T/C (P388 leukemia ip, CD2F1 mice, survival T/C) for O=C1C(CN2CCCC2)C(O)=C(c2ccccc2)N1c1ccccc1 (configuration not stated) = 92 % of control

* * *

Tested on: P388 leukemia ip, CD2F1 mice, survival T/C
Assay: NCI In Vivo Anticancer Drug Screen. Data for tumor model P388 Leukemia (intraperitoneal) in CD2F1 (CDF1) mice
Conditions: endpoint: median survival time; dose: 100.0 mg/kg/injection; schedule: Q01DX005 (ip); vehicle: saline with Tween-80
Experimental: The antitumor activity of compounds was measured in mice bearing transplantable tumors. Survival or tumor size were measured and the results are expressed as the measurement made in the treated group (T) divided by the measurement made in the vehicle treated control group (C). The tumor model used in this assay is P388 Leukemia (intraperitoneal) in CD2F1 (CDF1) mice
Toxic doses and inconclusive results are not listed. How the source made its calls: active means survival T/C of 150% or more; inactive means T/C below 125% in these data.
Choose one outcome from this list and give only that: True (active), False (inactive)

// param item: `CC(=O)N(C(C)=O)N(C(C)=O)c1cc2ccccc2cn1` ; yields the recorded call
False

// param item: `CCCCCCCCCCCCCC(=O)Oc1ccc[nH]c1=O` ; yields the recorded call
False

// param item: O=[N+]([O-])CC(c1ccccc1)C(c1ccccc1)[N+](=O)[O-] (centres undefined) ; yields the recorded call
False

// param item: C=C(C)C(=O)NCC(=O)Nc1ccc(CC(NC(C)=O)C(=O)OC)cc1 (centres undefined) ; yields the recorded call
False

// param item: CC(=O)N/C(=C\c1ccccc1)C(=O)NC(C)C(=O)O (centres undefined) ; yields the recorded call
False

// param item: `CNC(=O)OCc1c(COC(=O)NC)c2n(c1C)CCS2(=O)=O` ; yields the recorded call
False

// param item: O=C1c2ccccc2C(=O)N1N1CC1c1ccccc1 (centres undefined) ; yields the recorded call
False

// param item: `C1CCc2nc3c(nc2C1)CCCC3` ; yields the recorded call
False

// param item: COc1ccc(CCNC(=O)C2CCCOC2C(Cl)Cl)cc1OC (centres undefined) ; yields the recorded call
False

// param item: `NNC(=O)CCSC(=O)Nc1ccccc1` ; yields the recorded call
False

// param item: `COc1ccc2ccccc2c1Cc1ccc(N(C)C)cc1Cl` ; yields the recorded call
False

// param item: `COc1c2occc2c(N=Cc2c[nH]c3ccccc23)c2ccc(=O)oc12` ; yields the recorded call
False

// param item: C=COC(=O)C(Cc1cccs1)NC(=O)OCc1ccccc1 (centres undefined) ; yields the recorded call
False

// param item: `Cc1c([N+](=O)[O-])c(=O)oc2c1ccc1occc(=O)c12` ; yields the recorded call
False

// param item: `CC1=CC(C)=C(C#N)C2=S=C(c3ccccc3)C(=O)N12` ; yields the recorded call
False

// param item: COC1OC(C)(C(OC)OC)CCC1C (centres undefined) ; yields the recorded call
False

// param item: CC1N=C(SCc2c(F)cccc2Cl)N2C(C)N=C(SCc3c(F)cccc3Cl)N12 (centres undefined) ; yields the recorded call
False

// param item: `Fc1ccc(-c2nc3cc(-c4ccccc4)[nH]n3c2N=Nc2ccccc2)cc1` ; yields the recorded call
False

// param item: `CCCCCCCCCCCN(C)C` ; yields the recorded call
False

// param item: `CCn1c2ccccc2c2cc(N=Nc3cc(CN(C)C)c(O)c4ncccc34)ccc21` ; yields the recorded call
False

// param item: CCN(CC)CCOc1ccc(C(O)(Cc2ccc(OC)cc2)c2ccccc2)cc1 (centres undefined) ; yields the recorded call
False

// param item: COC1C(CO)OC(n2c3c(Cl)cccc3c3c4c(c5c6cccc(Cl)c6[nH]c5c32)C(=O)NC4=O)C(O)C1O (centres undefined) ; yields the recorded call
True

// param item: CN(C)c1nc2c(N)ncnc2n1C1OC(CO)C(O)C1O (centres undefined) ; yields the recorded call
False

// param item: `CCOC(=O)c1sc2nc(CN3CCOCC3)[nH]c(=O)c2c1C` ; yields the recorded call
False

* * *

Tested on: P388 leukemia ip, CD2F1 mice, survival T/C
Assay: NCI In Vivo Anticancer Drug Screen. Data for tumor model P388 Leukemia (intraperitoneal) in CD2F1 (CDF1) mice
Settings: endpoint: median survival time; dose: 1.56 mg/kg/injection; schedule: Q01DX009 (ip); vehicle: saline with Tween-80; higher = longer survival
Toxic doses and inconclusive results are not listed.
observable: T/C

// T/C (P388 leukemia ip, CD2F1 mice, survival T/C) for `COc1ccc(-c2cc(-c3ccc(OC)cc3OC)[n+](C)c(-c3ccc(OC)cc3OC)c2)cc1` = 124 % of control

// T/C (P388 leukemia ip, CD2F1 mice, survival T/C) for `Nc1ccc2cc3c(nc2n1)[nH]c1ccccc13` = 97 % of control

// T/C (P388 leukemia ip, CD2F1 mice, survival T/C) for `Clc1ccc(C(c2ccc(Cl)cc2)C(Cl)(Cl)Cl)cc1` = 105 % of control

// T/C (P388 leukemia ip, CD2F1 mice, survival T/C) for `O=C(N=Nc1c(Cl)c(O)c2ccccc2c1O)C(F)(F)F` = 101 % of control

// T/C (P388 leukemia ip, CD2F1 mice, survival T/C) for `CCOC(=O)c1ccc(NC(=O)Nc2ncccc2C)cc1` = 103 % of control

* * *

Kindly supply the reported T/C values for the records listed here.
System: P388 leukemia ip, CD2F1 mice, survival T/C
Experiment: NCI In Vivo Anticancer Drug Screen. Data for tumor model P388 Leukemia (intraperitoneal) in CD2F1 (CDF1) mice
Conditions: endpoint: median survival time; dose: 200.0 mg/kg/injection; schedule: Q04DX003 (ip); vehicle: saline with Tween-80; higher = longer survival
Toxic doses and inconclusive results are not listed.

In plain terms, `C=C(C)c1c2ccccc2cc2cccc(Sc3ccccc3)c12` has a documented T/C of 90 % of control

In plain terms, `c1ccc2c(c1)/C(=N/c1nccs1)N/C2=N\c1nccs1` has a documented T/C of 93 % of control

In plain terms, `CCOC(=O)c1[nH]cnc1/N=N/N(C)CCO` has a documented T/C of 113 % of control

In plain terms, `CCCSCC` has a documented T/C of 100 % of control

In plain terms, `O=C1NC(=O)c2ncccc21` has a documented T/C of 100 % of control

In plain terms, Cc1cc2c(cc1C)C(O)(C#Cc1ccccc1)c1c(C)ccc(C)c1C2=O (configuration not stated) has a documented T/C of 100 % of control

In plain terms, `O=C(OC1CCC2(CC1)SCCS2)c1ccccc1` has a documented T/C of 100 % of control

In plain terms, `Cc1ccccc1-c1nc2c(N)nc(N)nc2nc1N` has a documented T/C of 109 % of control

In plain terms, `CCCCNc1nc(SC)nc2nc[nH]c12` has a documented T/C of 96 % of control

In plain terms, `CCOC(=O)c1c(N)sc2c1CCCC2` has a documented T/C of 105 % of control

In plain terms, `COc1ccc(/C=C/C(=O)c2ccc3c(c2)OCO3)cc1OC` has a documented T/C of 109 % of control

In plain terms, `O=c1[nH][nH]c(=O)c2[nH]cnc12` has a documented T/C of 100 % of control
